Field: viability, T/C. Provide a value for each of the compounds that follow.
- Test system: 967376-340-R-J2-PDC multicell spheroid viability;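 also: luminescence used as surrogate of cell viability; spheroids exposed to agents for 7 days before read-out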
- measurement.description: Anticancer human tumor 967376-340-R-J2-PDC patient-derived colon adenocarcinoma cell line growth inhibition [PI3K]
- protocol.conditions: second compound 1 µM; first compound 0.1 µM; hits give low values

-- ask Please report viability, T/C for the following compound: CCCS(=O)(=O)Nc1ccc(F)c(C(=O)c2c[nH]c3ncc(-c4ccc(Cl)cc4)cc23)c1F + CC(Nc1ncnc2nc[nH]c12)c1cc2cccc(Cl)c2c(=O)n1-c1ccccc1
-- reply 95.4%

-- ask // Input: CC(Cn1ccc(-c2ccc(C#N)c(Cl)c2)n1)NC(=O)c1cc(C(C)O)[nH]n1 (stereo unspecified) + COc1c(OCCCN2CCOCC2)ccc2c3n(c(=NC(=O)c4cnc(N)nc4)nc12)CCN3 . Output its viability, T/C only.
-- reply 42.4%

-- ask Give reported viability, T/C value for C[C@@H](NC(=O)c1ncnc(N)c1Cl)c1ncc(C(=O)Nc2cc(C(F)(F)F)c(Cl)cn2)s1 + CC(Nc1ccc2c(c1)OCCn1cc(N3C(=O)OCC3C(F)F)nc1-2)C(N)=O
-- reply 62.2%

-- ask Please report the measured viability, T/C for CNC(=O)c1ccc(N2C(=S)N(c3ccc(C#N)c(C(F)(F)F)c3)C(=O)C2(C)C)cc1F + CC(Nc1ccc2c(c1)OCCn1cc(N3C(=O)OCC3C(F)F)nc1-2)C(N)=O
-- reply 66%

-- ask Please supply the value of reported viability, T/C for the item CC(C)n1nc(-c2ccc3oc(N)nc3c2)c2c(N)ncnc21 + CC(Nc1ccc2c(c1)OCCn1cc(N3C(=O)OCC3C(F)F)nc1-2)C(N)=O
-- reply 38.4%

-- ask Please give the documented viability, T/C of CCN1CCN(Cc2ccc(Nc3ncc(F)c(-c4cc(F)c5nc(C)n(C(C)C)c5c4)n3)nc2)CC1 + CC(Nc1ccc2c(c1)OCCn1cc(N3C(=O)OCC3C(F)F)nc1-2)C(N)=O
-- reply 49.3%

-- ask Give the reported value of viability, T/C for this record: Cn1ncnc1[C@H]1c2n[nH]c(=O)c3cc(F)cc(c23)N[C@@H]1c1ccc(F)cc1 + Cc1nc(NC(=O)N2CCCC2C(N)=O)sc1-c1ccnc(C(C)(C)C(F)(F)F)c1
-- reply 60.3%

-- ask Report viability, T/C for CC(C)NCC(C(=O)N1CCN(c2ncnc3c2C(C)CC3O)CC1)c1ccc(Cl)cc1 (stereo unspecified) + COc1c(OCCCN2CCOCC2)ccc2c3n(c(=NC(=O)c4cnc(N)nc4)nc12)CCN3
-- reply 25.3%

-- ask Please indicate viability, T/C recorded for C#Cc1c(F)ccc2cc(O)cc(-c3ncc4c(N5CC6CCC(C5)N6)nc(OCC56CCCN5CC(F)C6)nc4c3F)c12 (stereo unspecified) + CC(Nc1ccc2c(c1)OCCn1cc(N3C(=O)OCC3C(F)F)nc1-2)C(N)=O
-- reply 58.6%

-- ask Answer with the recorded viability, T/C for the compound listed here: C=CC(=O)N1CCN(c2nc(=O)n(-c3c(C)ccnc3C(C)C)c3nc(-c4c(O)cccc4F)c(F)cc23)C(C)C1 (stereo unspecified) + COc1c(OCCCN2CCOCC2)ccc2c3n(c(=NC(=O)c4cnc(N)nc4)nc12)CCN3
-- reply 36%

-- ask Hello, please tell me recorded viability, T/C for this one: CC(Cn1ccc(-c2ccc(C#N)c(Cl)c2)n1)NC(=O)c1cc(C(C)O)[nH]n1 (stereo unspecified) + CC(Nc1ncnc2nc[nH]c12)c1cc2cccc(Cl)c2c(=O)n1-c1ccccc1
-- reply 83.3%
